// data source = paper PMC9482650

Target under test: SCRIB_3, Q14160
Sequence (Q14160 999-1103): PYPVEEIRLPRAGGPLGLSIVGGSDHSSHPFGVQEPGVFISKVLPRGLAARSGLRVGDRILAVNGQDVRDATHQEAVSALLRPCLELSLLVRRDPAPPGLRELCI
Protocol details: holdup assay
Design: key: below the threshold = too weak to quantify, mostly under pKd 3.1 to 4
Reported conditions: plain residues with an end cap or a label only (N-terminal biotin on a linker: ttds)
Readout kind: pKd
Reply: number alone, nothing else.

{"Binder": "FVETQHQTQV [FAT3, Q8TDW7]", "pKd": 4.02}
{"Binder": "PSRDRKETSI [RALBP1, Q15311]", "pKd": 4.97}
{"Binder": "NPDALPETLV [ARHGAP6, O43182]", "pKd": 3.99}

Field pKd (entry SSIDLWETAL [SLC15A5, A6NIM6] ) reads 5.71

What the record says about QRPYRRESEI [KCNJ12, Q14500] : pKd is 4.76

pKd measured on GRLLGLETNV [ARHGEF26, Q96DR7] = 4.67

binder SGGKRKETLV [NET1, Q7Z628] , pKd observed: 4.31
